FYI, the data here is from paper doi:10.1101/2024.12.02.625520.

Overview of reported solubility kinetic across a group of compounds:
Experiment: Kinetic solubility
Details: kinetic from dmso stock
The response must be a number in µM with no trailing unit.

{"compound": "CS(=O)(=O)NCC1CCOC2(CCN(C(=O)C3(c4ccccc4)CCCC3)CC2)C1 (stereo not shown)", "result value": 236}
{"compound": "Cc1nc(CC2CCOC3(CCN(C(=O)C4(c5ccccc5)CCCC4)CC3)C2)no1 (stereo not shown)", "result value": 202}
{"compound": "COc1cc(Cl)c(NS(=O)(=O)c2c(C)sc(C)c2-c2[nH]nc(C)c2C)c(OC)c1", "result value": 12.5}

Continue with the next compound.
[Q] Return the recorded solubility kinetic value; entry: Cc1ccnc(OC2CCOC3(CCN(C(=O)C4(c5ccccc5)CCCC4)CC3)C2)c1 (stereo not shown)
[A] 14.2

----------
Target: CHIKV nsP2 ATPase (Chikungunya virus)
Test: Secondary CHIKV nsP2 ATPase assay (ADP-Glo)
Conditions: ADP-Glo dose response, Avge n=2
Label met when Hill slope >= 1; otherwise not met.

Recorded results for 2 molecules are shown here.
{"molecule": "O=C(C1CCCN(c2ccc(Sc3ccc(Br)cc3)nn2)C1)N1CCSCC1 (stereo not drawn) [RA-0001816]", "category": "met"}
{"molecule": "CS(=O)(=O)NCC1CCOC2(CCN(C(=O)C3(c4ccccc4)CCCC3)CC2)C1 (stereo not drawn) [RA-0001822]", "category": "not met"}

[Q] Kindly determine if Hill slope recorded for CC1SC2(C(=O)Nc3ccccc32)N(CCc2c[nH]c3ccccc23)C1=O (stereo not drawn) [RA-0001810] is above or exactly 1.
[A] met

----------
Target: CHIKV nsP2 ATPase (Chikungunya virus, UniProt Q8JUX6)
Sequence (Q8JUX6 536-1333): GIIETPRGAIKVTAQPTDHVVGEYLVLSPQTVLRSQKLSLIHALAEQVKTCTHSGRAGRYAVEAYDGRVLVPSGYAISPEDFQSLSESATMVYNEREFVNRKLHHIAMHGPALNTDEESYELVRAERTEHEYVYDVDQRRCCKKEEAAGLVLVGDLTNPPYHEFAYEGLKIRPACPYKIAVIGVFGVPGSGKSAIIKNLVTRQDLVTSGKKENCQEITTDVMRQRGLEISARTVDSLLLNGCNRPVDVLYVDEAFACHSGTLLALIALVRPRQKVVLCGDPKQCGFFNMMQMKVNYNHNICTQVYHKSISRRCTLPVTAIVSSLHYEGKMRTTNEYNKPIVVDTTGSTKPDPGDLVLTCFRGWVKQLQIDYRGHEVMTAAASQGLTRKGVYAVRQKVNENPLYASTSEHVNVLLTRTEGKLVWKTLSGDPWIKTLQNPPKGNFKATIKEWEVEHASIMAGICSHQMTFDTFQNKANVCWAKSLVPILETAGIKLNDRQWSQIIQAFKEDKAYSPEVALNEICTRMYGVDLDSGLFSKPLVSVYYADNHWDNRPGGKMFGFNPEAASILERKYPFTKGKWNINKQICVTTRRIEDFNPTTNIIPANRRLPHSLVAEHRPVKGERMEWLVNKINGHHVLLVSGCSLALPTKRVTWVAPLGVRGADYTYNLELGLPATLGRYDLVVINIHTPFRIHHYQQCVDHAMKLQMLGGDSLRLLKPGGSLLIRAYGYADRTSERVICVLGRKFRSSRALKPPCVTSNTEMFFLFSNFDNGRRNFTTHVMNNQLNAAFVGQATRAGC
Test: High throughput nsP2 ATPase activity assay (Malachite Green)
Settings: read-out: Malachite Green % INHIBITION (RESCREEN)
measured attribute: inhibition at 25 µM (%)
The response must be a number in % with no trailing unit.

Previously resolved entries follow.
{"compound": "O=C(C1CCCN(c2ccc(Sc3ccc(Br)cc3)nn2)C1)N1CCSCC1 (stereo not shown)", "inhibition at 25 µM, %": 71}
{"compound": "CSc1ccc(Cn2cccc2C2=NC(CSCc3ccc(F)cc3)CO2)cc1 (stereo not shown)", "inhibition at 25 µM, %": 53}
{"compound": "Cc1cccc(CSc2nsc(SCc3cccc(C)c3)c2C#N)c1", "inhibition at 25 µM, %": 61}
{"compound": "CN(Cc1ccco1)c1nc(-c2ccc(Cl)cc2)nc2ccccc12", "inhibition at 25 µM, %": 56}

[Q] Return the recorded inhibition at 25 µM value; entry: Cc1ccc(N2C(=O)/C(=C/C=C/c3ccco3)C(=O)NC2=S)cc1
[A] 64

[Q] Return the recorded inhibition at 25 µM value; entry: CC1SC2(C(=O)Nc3ccccc32)N(CCc2c[nH]c3ccccc23)C1=O (stereo not shown)
[A] 76

[Q] Return the recorded inhibition at 25 µM value; entry: CCCC(C(=O)O)N1C(=O)/C(=C/c2ccc(-c3ccc(Br)cc3)o2)SC1=S (stereo not shown)
[A] 55

[Q] Return the recorded inhibition at 25 µM value; entry: N#Cc1c(SCc2ccccc2Cl)nsc1SCc1ccccc1Cl
[A] 64

[Q] Return the recorded inhibition at 25 µM value; entry: Brc1ccc(-c2csc(N3CCc4ccccc4C3)n2)cc1
[A] 60
